# PROTOCOL_TEXT: Clearence in mouse at 2 mg/kg, iv
# Type: ADME, organism-based
# EXPERIMENTAL_CONTEXT: in vivo
MEASUREMENT_TYPE: clearance (mL/min/kg)

Nc1nc(-c2cccc(-n3ccc4cc(C5CC5)cc(F)c4c3=O)c2CO)c2cc(C3=CCN(C4COC4)CC3)[nH]c2n1 [MILREBRUTINIB] : 18.8

====

# PROTOCOL_TEXT: Half life in dog at 1 mg/kg, iv
# Format: ADME, organism-based, Canis lupus familiaris
# EXPERIMENTAL_CONTEXT: in vivo
MEASUREMENT_TYPE: half-life (min)

Nc1nc(-c2cccc(-n3ccc4cc(C5CC5)cc(F)c4c3=O)c2CO)c2cc(C3=CCN(C4COC4)CC3)[nH]c2n1 [MILREBRUTINIB] : 77.4

====

# PROTOCOL_TEXT: AUC (0 to last) in mouse at 2 mg/kg, iv
# Assay type: ADME, organism-based
# Parameters: time 0 - last, dose 2 mg/kg, route iv
# EXPERIMENTAL_CONTEXT: in vivo
MEASUREMENT_TYPE: AUC(0-t) (µg·h/mL)

Nc1nc(-c2cccc(-n3ccc4cc(C5CC5)cc(F)c4c3=O)c2CO)c2cc(C3=CCN(C4COC4)CC3)[nH]c2n1 : 1.75

====

# PROTOCOL_TEXT: Plasma protein binding in dog
# Format: ADME, cell-free, Canis lupus familiaris
# EXPERIMENTAL_CONTEXT: read-out: PPB (converted)
MEASUREMENT_TYPE: fraction unbound

Nc1nc(-c2cccc(-n3ccc4cc(C5CC5)cc(F)c4c3=O)c2CO)c2cc(C3=CCN(C4COC4)CC3)[nH]c2n1 [MILREBRUTINIB] : 0.015

====

# TGT: Tyrosine-protein kinase Tec (Homo sapiens)
# Sequence (P42680 whole entry): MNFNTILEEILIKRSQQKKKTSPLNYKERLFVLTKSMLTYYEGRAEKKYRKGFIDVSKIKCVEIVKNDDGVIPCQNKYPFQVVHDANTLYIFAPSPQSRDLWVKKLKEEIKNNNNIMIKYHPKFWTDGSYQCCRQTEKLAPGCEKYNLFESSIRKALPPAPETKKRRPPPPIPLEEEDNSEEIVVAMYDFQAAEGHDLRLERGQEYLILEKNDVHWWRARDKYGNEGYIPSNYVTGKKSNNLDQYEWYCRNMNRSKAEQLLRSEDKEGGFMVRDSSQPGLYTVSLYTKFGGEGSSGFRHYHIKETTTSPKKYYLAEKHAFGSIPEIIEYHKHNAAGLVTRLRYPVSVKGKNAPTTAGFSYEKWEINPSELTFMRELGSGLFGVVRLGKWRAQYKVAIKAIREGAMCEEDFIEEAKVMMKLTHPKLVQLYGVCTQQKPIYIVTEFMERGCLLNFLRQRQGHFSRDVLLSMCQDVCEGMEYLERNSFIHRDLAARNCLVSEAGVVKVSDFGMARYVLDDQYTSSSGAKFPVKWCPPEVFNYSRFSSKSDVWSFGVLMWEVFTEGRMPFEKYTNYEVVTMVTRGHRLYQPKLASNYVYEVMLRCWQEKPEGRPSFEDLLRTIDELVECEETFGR
MEASUREMENT_TYPE: IC50 (nM)

Nc1nc(-c2cccc(-n3ccc4cc(C5CC5)cc(F)c4c3=O)c2CO)c2cc(C3=CCN(C4COC4)CC3)[nH]c2n1 [MILREBRUTINIB] : 1.34

====

# PROTOCOL_TEXT: MRT (0 to last) in dog at 1 mg/kg, iv
# Assay type: ADME, organism-based, Canis lupus familiaris
# EXPERIMENTAL_CONTEXT: in vivo
MEASUREMENT_TYPE: MRT last

Nc1nc(-c2cccc(-n3ccc4cc(C5CC5)cc(F)c4c3=O)c2CO)c2cc(C3=CCN(C4COC4)CC3)[nH]c2n1 [MILREBRUTINIB] : 1.23 h

====

# TGT: Cytochrome P450 2D6 (Homo sapiens, UniProt P10635)
# Sequence (P10635 whole entry): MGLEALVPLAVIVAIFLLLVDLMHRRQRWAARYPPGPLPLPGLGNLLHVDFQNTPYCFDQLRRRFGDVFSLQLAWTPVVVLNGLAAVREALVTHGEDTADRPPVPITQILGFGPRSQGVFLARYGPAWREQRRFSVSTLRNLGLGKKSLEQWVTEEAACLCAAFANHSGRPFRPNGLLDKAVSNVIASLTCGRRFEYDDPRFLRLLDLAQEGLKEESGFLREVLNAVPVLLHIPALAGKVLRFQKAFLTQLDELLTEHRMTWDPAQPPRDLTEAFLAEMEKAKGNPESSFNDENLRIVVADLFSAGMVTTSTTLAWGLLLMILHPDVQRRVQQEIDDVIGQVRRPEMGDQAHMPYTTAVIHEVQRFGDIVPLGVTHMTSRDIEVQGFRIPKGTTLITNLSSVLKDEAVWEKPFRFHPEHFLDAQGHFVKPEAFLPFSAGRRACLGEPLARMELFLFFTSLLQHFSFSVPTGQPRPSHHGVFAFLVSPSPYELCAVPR
pIC50: −log10 of the molar value.
MEASUREMENT_TYPE: pIC50

Nc1nc(-c2cccc(-n3ccc4cc(C5CC5)cc(F)c4c3=O)c2CO)c2cc(C3=CCN(C4COC4)CC3)[nH]c2n1 [MILREBRUTINIB] : < 5.00

====

# PROTOCOL_TEXT: AUC (0 to last) in rat at 15 mg/kg, po
# Assay type: ADME, organism-based
# Set-up: time 0 - last, dose 15 mg/kg, route po
# EXPERIMENTAL_CONTEXT: in vivo
MEASUREMENT_TYPE: AUC(0-t) (ng·h/mL)

Nc1nc(-c2cccc(-n3ccc4cc(C5CC5)cc(F)c4c3=O)c2CO)c2cc(C3=CCN(C4COC4)CC3)[nH]c2n1 [MILREBRUTINIB] : 1870

Source listed as ChEMBL document CHEMBL5053510.
